molecular target: human EGFR exon 20 insertion ASV (V769_D770insASV) (Homo sapiens, UniProt P00533, INS769ASV); assay: Ba/F3-EGFR-Exon20-ASV cell anti-proliferative assay (CellTiter 96 MTS, 72 h); details: Ba/F3-EGFR-Exon20-ASV cells
Sequence (P00533 with tags, fused parts or gaps INS769ASV): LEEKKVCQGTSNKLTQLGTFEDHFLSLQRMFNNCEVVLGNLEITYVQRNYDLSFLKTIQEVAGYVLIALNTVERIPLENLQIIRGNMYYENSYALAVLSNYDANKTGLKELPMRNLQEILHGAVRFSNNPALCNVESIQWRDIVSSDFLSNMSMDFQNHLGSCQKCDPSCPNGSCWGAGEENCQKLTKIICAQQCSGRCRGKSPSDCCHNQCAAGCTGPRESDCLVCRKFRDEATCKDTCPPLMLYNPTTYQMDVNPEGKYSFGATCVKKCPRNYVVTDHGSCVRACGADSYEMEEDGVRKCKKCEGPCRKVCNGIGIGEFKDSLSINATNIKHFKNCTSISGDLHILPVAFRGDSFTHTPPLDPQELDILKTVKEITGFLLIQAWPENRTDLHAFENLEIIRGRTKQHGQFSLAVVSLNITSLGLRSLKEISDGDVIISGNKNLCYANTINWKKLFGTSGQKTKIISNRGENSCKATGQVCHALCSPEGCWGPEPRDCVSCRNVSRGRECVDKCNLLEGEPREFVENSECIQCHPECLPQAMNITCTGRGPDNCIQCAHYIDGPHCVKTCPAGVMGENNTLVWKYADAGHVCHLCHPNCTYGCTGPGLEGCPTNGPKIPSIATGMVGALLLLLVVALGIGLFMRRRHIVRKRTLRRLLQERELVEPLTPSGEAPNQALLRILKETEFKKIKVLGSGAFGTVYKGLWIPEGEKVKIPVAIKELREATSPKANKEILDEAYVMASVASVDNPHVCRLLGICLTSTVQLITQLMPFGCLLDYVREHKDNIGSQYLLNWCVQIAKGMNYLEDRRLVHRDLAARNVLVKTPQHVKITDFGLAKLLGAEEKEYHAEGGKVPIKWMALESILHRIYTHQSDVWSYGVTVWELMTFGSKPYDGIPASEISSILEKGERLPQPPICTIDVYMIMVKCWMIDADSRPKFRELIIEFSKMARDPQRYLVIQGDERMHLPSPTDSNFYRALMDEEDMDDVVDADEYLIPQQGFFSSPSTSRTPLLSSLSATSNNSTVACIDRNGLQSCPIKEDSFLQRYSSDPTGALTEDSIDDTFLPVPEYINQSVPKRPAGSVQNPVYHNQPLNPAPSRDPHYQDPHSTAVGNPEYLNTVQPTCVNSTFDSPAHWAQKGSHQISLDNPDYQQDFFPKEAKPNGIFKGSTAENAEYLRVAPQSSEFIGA
pIC50: −log10 of the molar value.
Kindly state pIC50 for each of the entries shown.

Example results:
[[record]]
compound = "C=CC(=O)Nc1cc(Nc2ncc(/C=C/C#N)c(-c3cn4c5c(cccc35)CCC4)n2)c(OC)cc1N(C)CCN(C)C [Example 42]"
property = "pIC50"
reported_result = "> 7.00"

[[record]]
compound = "C=CC(=O)Nc1cc(Nc2nccc(-c3cn4c5c(cccc35)CCC4)n2)c(OC)cc1N(C)CCNC [Example 83]"
property = "pIC50"
reported_result = "6.30 to 7.00"

[[record]]
compound = "C=CC(=O)Nc1cc(Nc2nccc(-c3c(-c4ncnn4C)n4c5c(cccc35)CCC4)n2)c(OC)cc1N(C)CCN(C)C [Example 110]"
property = "pIC50"
reported_result = "6.30 to 7.00"


Fill blank: measured pIC50 of the compound C=CC(=O)Nc1cc(Nc2ncc(C#N)c(-c3cn4c5c(cccc35)CCC4)n2)c(OC)cc1N1CC[C@H](N(C)C)C1 [Example 16] is ____.
> 7.00
